Values were extracted from paper PMC8152265.

Test: Serum pharmacokinetics in non-infected mice after single subcutaneous dose
Assay type: in vivo, BALB/c mice
Settings: BALB/c, mouse, in vivo, sc, 50 mg/kg, AUC0-12h
endpoint-name: AUC(0-t) (ng·h/mL)
Hi! Could you send only the number? It should be in ng·h/mL, unit omitted.

Short answer for C[C@H]1COc2c(N3CCN(C)CC3)c(F)cc3c(=O)c(C(=O)O)cn1c23 [Levofloxacin, levofloxacin] : AUC(0-t) was 17300

* * *

Test: Serum pharmacokinetics in non-infected mice after single subcutaneous dose
Assay type: in vivo, BALB/c mice
Conditions: BALB/c, mouse, in vivo, sc, 50 mg/kg
endpoint-name: half-life (min)
Hi! Could you send only the number? It should be in min, unit omitted.

Short answer for C[C@H]1COc2c(N3CCN(C)CC3)c(F)cc3c(=O)c(C(=O)O)cn1c23 : half-life was 42
